ASSAY PROCEDURE: in vitro DMPK: human intrinsic and predicted hepatic clearance
Format: in vitro ADME
DETAILS: human, in vitro; unit assumed
Label scheme for Human CLINT: bottom range: < 7 mL/min/kg; center range: ≥ 7 mL/min/kg and < 10 mL/min/kg; top range: ≥ 10 mL/min/kg

- O=C(c1nccc2cc(Nc3n[nH]c4cccnc34)ccc12)N1CCCC(F)(F)C1: top range
- O=C(NC1CC(F)(F)C1)c1nccc2cc(Nc3n[nH]c4cccnc34)ccc12: center range
- CS(=O)(=O)N1CCN(C(=O)c2nccc3cc(Nc4n[nH]c5cccnc45)ccc23)CC1: center range
- O=C(NC1CC(F)C1)c1nccc2cc(Nc3n[nH]c4cccnc34)ccc12 (stereo not shown): bottom range
- O=C(c1nccc2cc(Nc3n[nH]c4ncccc34)ccc12)N1CCC(F)(F)CC1: top range
- O=C(NC1CCOC1)c1nccc2cc(Nc3n[nH]c4cccnc34)ccc12 (stereo not shown): bottom range
- O=C(NC1CC(F)(F)C1)c1nccc2cc(Nc3n[nH]c4ncccc34)ccc12: center range
- O=C(c1nccc2cc(Nc3n[nH]c4cccnc34)ccc12)N1CCC(F)(F)CC1: top range

###

ASSAY PROCEDURE: rat brain homogenate binding (BHB)
Format: in vitro ADME
DETAILS: read-out: Rat BHB fu
Excerpt: As the only drug that interact with mGlu4 is free drug, the compounds of the present invention have unexpectedly exceptional profiles as putative drug candidates.
OUTCOME MEASURE: fraction unbound

* O=C(c1nccc2cc(Nc3n[nH]c4cccnc34)ccc12)N1CCC(F)(F)CC1 | 0.055
* COC1CC(NC(=O)c2nccc3cc(Nc4n[nH]c5cccnc45)ccc23)C1 (stereo not shown) | 0.082
* O=C(NC1CCOC1)c1nccc2cc(Nc3n[nH]c4cccnc34)ccc12 (stereo not shown) | 0.068
* O=C(NC1CC(F)C1)c1nccc2cc(Nc3n[nH]c4cccnc34)ccc12 (stereo not shown) | 0.02
* O=C(c1nccc2cc(Nc3n[nH]c4cccnc34)ccc12)N1CC[C@H](F)C1 | 0.095
* O=C(c1nccc2cc(Nc3n[nH]c4ncccc34)ccc12)N1CCC(F)(F)CC1 | 0.028
* O=C(c1nccc2cc(Nc3n[nH]c4cccnc34)ccc12)N1CCCC(F)(F)C1 | 0.05
* O=C(NC1CC(F)(F)C1)c1nccc2cc(Nc3n[nH]c4ncccc34)ccc12 | 0.009
* CS(=O)(=O)N1CCN(C(=O)c2nccc3cc(Nc4n[nH]c5cccnc45)ccc23)CC1 | 0.085
* O=C(NC1CC(F)(F)C1)c1nccc2cc(Nc3n[nH]c4cccnc34)ccc12 | 0.01

###

ASSAY PROCEDURE: in vitro DMPK: rat intrinsic and predicted hepatic clearance
Assay type: in vitro ADME
DETAILS: in vitro, unit assumed
Below: a set of entries, each annotated with reported Rat CLINT.
OUTCOME MEASURE: Rat CLINT (mL/min/kg)

* O=C(c1nccc2cc(Nc3n[nH]c4cccnc34)ccc12)N1CCC(F)(F)CC1 | 568
* CS(=O)(=O)N1CCN(C(=O)c2nccc3cc(Nc4n[nH]c5cccnc45)ccc23)CC1 | 230
* O=C(c1nccc2cc(Nc3n[nH]c4cccnc34)ccc12)N1CCCC(F)(F)C1 | 885
* O=C(c1nccc2cc(Nc3n[nH]c4ncccc34)ccc12)N1CCC(F)(F)CC1 | 328
* COC1CC(NC(=O)c2nccc3cc(Nc4n[nH]c5cccnc45)ccc23)C1 (stereo not shown) | 26.7
* O=C(NC1CCOC1)c1nccc2cc(Nc3n[nH]c4cccnc34)ccc12 (stereo not shown) | 2.82
* O=C(c1nccc2cc(Nc3n[nH]c4cccnc34)ccc12)N1CC[C@H](F)C1 | 32.5
* O=C(NC1CC(F)(F)C1)c1nccc2cc(Nc3n[nH]c4cccnc34)ccc12 | 32.8
* O=C(NC1CC(F)(F)C1)c1nccc2cc(Nc3n[nH]c4ncccc34)ccc12 | 37
* O=C(NC1CC(F)C1)c1nccc2cc(Nc3n[nH]c4cccnc34)ccc12 (stereo not shown) | 32.4

###

Listing of entries alongside the reported Human CLHEP.
ASSAY PROCEDURE: in vitro DMPK: human intrinsic and predicted hepatic clearance
Format: in vitro ADME
DETAILS: predicted human clearance; human hepatic blood flow 20 mL/min/kg
OUTCOME MEASURE: Human CLHEP (mL/min/kg)

* O=C(c1nccc2cc(Nc3n[nH]c4cccnc34)ccc12)N1CCCC(F)(F)C1 | 18.7
* O=C(NC1CC(F)C1)c1nccc2cc(Nc3n[nH]c4cccnc34)ccc12 (stereo not drawn) | 5.03
* O=C(c1nccc2cc(Nc3n[nH]c4cccnc34)ccc12)N1CC[C@H](F)C1 | 5.20
* O=C(c1nccc2cc(Nc3n[nH]c4ncccc34)ccc12)N1CCC(F)(F)CC1 | 16.8
* O=C(NC1CCOC1)c1nccc2cc(Nc3n[nH]c4cccnc34)ccc12 (stereo not drawn) | 0.61
* O=C(c1nccc2cc(Nc3n[nH]c4cccnc34)ccc12)N1CCC(F)(F)CC1 | 16.9

###

ASSAY PROCEDURE: in vitro DMPK: human intrinsic and predicted hepatic clearance
Assay type: in vitro ADME
DETAILS: predicted human clearance; human hepatic blood flow 20 mL/min/kg
OUTCOME MEASURE: Human CLHEP (mL/min/kg)

• O=C(NC1CC(F)(F)C1)c1nccc2cc(Nc3n[nH]c4ncccc34)ccc12 [Example 27] = 5.60
• CS(=O)(=O)N1CCN(C(=O)c2nccc3cc(Nc4n[nH]c5cccnc45)ccc23)CC1 [Example 6] = 5.49
• COC1CC(NC(=O)c2nccc3cc(Nc4n[nH]c5cccnc45)ccc23)C1 (stereo not shown) [Example 10] = 6.86
• O=C(NC1CC(F)(F)C1)c1nccc2cc(Nc3n[nH]c4cccnc34)ccc12 [Example 9] = 6.30

###

ASSAY TARGET: mGlu4 (UniProt Q14833)
DETAILS: read-out: mGlu4 PAM EC50
pEC50: −log10 of the molar value.
Assign class by pEC50: not lower than 6 means true (1); lower than 6 means false (0).

- CN(C(=O)c1nccc2cc(Nc3n[nH]c4cccnc34)ccc12)C1CCOC1 (stereo not drawn): false (0)
- CN(C(=O)c1nccc2cc(Nc3n[nH]c4ncccc34)ccc12)C1CCOC1 (stereo not drawn): false (0)
- CN(C(=O)c1nccc2cc(Nc3n[nH]c4cccnc34)ccc12)C1CC(F)C1 (stereo not drawn): true (1)
- CN(C(=O)c1nccc2cc(Nc3n[nH]c4cccnc34)ccc12)C1CC(F)(F)C1: true (1)
- CN(C(=O)c1nccc2cc(Nc3n[nH]c4ncccc34)ccc12)C1CC(F)C1 (stereo not drawn): false (0)

###

ASSAY PROCEDURE: in vitro DMPK: rat intrinsic and predicted hepatic clearance
Type: in vitro ADME
DETAILS: predicted
Label Y when Rat CLHEP is strictly below 50 mL/min/kg; at or above that, label N.

• O=C(NC1CC(F)(F)C1)c1nccc2cc(Nc3n[nH]c4ncccc34)ccc12 = Y
• O=C(c1nccc2cc(Nc3n[nH]c4cccnc34)ccc12)N1CCC(F)(F)CC1 = N
• O=C(c1nccc2cc(Nc3n[nH]c4ncccc34)ccc12)N1CCC(F)(F)CC1 = N
• O=C(c1nccc2cc(Nc3n[nH]c4cccnc34)ccc12)N1CC[C@H](F)C1 = Y
• CS(=O)(=O)N1CCN(C(=O)c2nccc3cc(Nc4n[nH]c5cccnc45)ccc23)CC1 = N

###

ASSAY TARGET: human mGluR4 (Homo sapiens, UniProt Q14833)
Sequence (Q14833 33-912): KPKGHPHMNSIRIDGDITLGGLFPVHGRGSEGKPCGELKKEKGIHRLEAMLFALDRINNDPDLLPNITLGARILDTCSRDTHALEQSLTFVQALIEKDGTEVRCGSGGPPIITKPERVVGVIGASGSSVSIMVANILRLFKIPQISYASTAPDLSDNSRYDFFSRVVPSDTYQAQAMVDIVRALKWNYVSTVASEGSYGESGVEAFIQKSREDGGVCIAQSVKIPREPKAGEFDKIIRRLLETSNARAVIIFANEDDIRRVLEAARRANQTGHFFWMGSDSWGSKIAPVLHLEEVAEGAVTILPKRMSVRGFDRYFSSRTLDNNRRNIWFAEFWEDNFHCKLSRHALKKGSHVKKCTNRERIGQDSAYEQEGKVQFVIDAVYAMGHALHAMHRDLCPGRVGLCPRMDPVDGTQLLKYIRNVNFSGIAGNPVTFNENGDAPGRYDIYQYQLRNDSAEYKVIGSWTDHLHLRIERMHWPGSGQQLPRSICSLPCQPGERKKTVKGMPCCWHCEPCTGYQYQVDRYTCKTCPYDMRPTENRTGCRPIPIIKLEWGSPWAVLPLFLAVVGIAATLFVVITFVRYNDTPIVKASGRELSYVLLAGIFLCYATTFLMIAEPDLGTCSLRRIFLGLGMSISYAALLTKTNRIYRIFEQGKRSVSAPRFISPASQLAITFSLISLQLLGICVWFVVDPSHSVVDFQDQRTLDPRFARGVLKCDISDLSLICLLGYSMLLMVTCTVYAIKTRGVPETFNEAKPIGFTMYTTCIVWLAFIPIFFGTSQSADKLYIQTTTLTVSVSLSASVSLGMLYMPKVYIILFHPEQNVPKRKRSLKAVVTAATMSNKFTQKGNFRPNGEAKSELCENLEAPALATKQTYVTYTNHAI
ASSAY PROCEDURE: human mGluR4 potentiation assay, CHO cells transfected with human mGluR4, Ca2+-sensitive dye
DETAILS: human mGlu4; read-out: hmGlu4 EC50
pEC50: −log10 of the molar value.
OUTCOME MEASURE: pEC50

• O=C(c1nccc2cc(Nc3n[nH]c4ncccc34)ccc12)N1CCC(F)(F)CC1 = 6.29
• O=C(c1nccc2cc(Nc3n[nH]c4cccnc34)ccc12)N1CCCC(F)(F)C1 = 6.93
• CS(=O)(=O)N1CCN(C(=O)c2nccc3cc(Nc4n[nH]c5cccnc45)ccc23)CC1 = 6.57

###

In this section, each of the molecules is paired with its reported fraction unbound.
ASSAY PROCEDURE: free drug level (fu) in human plasma
Format: in vitro ADME
OUTCOME MEASURE: fraction unbound

- O=C(NC1CC(F)C1)c1nccc2cc(Nc3n[nH]c4cccnc34)ccc12 (centres unmarked) [Example 8]: 0.11
- O=C(c1nccc2cc(Nc3n[nH]c4cccnc34)ccc12)N1CCC(F)(F)CC1 [Example 7]: 0.094
- O=C(NC1CCOC1)c1nccc2cc(Nc3n[nH]c4cccnc34)ccc12 (centres unmarked) [Example 11]: 0.188
- COC1CC(NC(=O)c2nccc3cc(Nc4n[nH]c5cccnc45)ccc23)C1 (centres unmarked) [Example 10]: 0.059
- O=C(c1nccc2cc(Nc3n[nH]c4cccnc34)ccc12)N1CC[C@H](F)C1 [Example 5]: 0.094
